A collection of compounds and their measured Plant response rating, Blackgrass
- Tested on: blackgrass (Alopecurus myosuroides)
- TEST_DESCRIPTION: Test A postemergence, blackgrass
- Assay type: in vivo
- CONDITION_SET: 31 g ai/ha, postemergence; 0 to 100 scale, 0 is no effect, 100 is complete control; approximately 10 days
OBSERVED_PROPERTY: Plant response rating, Blackgrass

[[record]]
compound = "N#Cc1cccc(Oc2ncc(Cl)cn2)c1OC/C=C/Cl [Compound 7]"
assayed_target = "blackgrass (Alopecurus myosuroides)"
observed_property = "Plant response rating, Blackgrass"
value_observed = 10

[[record]]
compound = "FC(F)(F)CCCOc1c(Br)cccc1Oc1ncc(Cl)cn1 [Compound 31]"
assayed_target = "blackgrass (Alopecurus myosuroides)"
observed_property = "Plant response rating, Blackgrass"
value_observed = 20

[[record]]
compound = "FC(F)=C(F)CCOc1c(Br)cccc1Oc1ncc(Cl)cn1 [Compound 38]"
assayed_target = "blackgrass (Alopecurus myosuroides)"
observed_property = "Plant response rating, Blackgrass"
value_observed = 0

[[record]]
compound = "CCCCCOc1c(C#N)cccc1Oc1ncc(Cl)cn1 [Compound 51]"
assayed_target = "blackgrass (Alopecurus myosuroides)"
observed_property = "Plant response rating, Blackgrass"
value_observed = 0

[[record]]
compound = "Cc1cccc(Oc2ncc(Cl)cn2)c1OCCCF [Compound 57]"
assayed_target = "blackgrass (Alopecurus myosuroides)"
observed_property = "Plant response rating, Blackgrass"
value_observed = 0

[[record]]
compound = "FC(F)(F)CCCOc1c(Cl)cccc1Oc1ncc(Cl)cn1 [Compound 46]"
assayed_target = "blackgrass (Alopecurus myosuroides)"
observed_property = "Plant response rating, Blackgrass"
value_observed = 0

[[record]]
compound = "N#Cc1cccc(Oc2ncc(Cl)cn2)c1OCCCF [Compound 15]"
assayed_target = "blackgrass (Alopecurus myosuroides)"
observed_property = "Plant response rating, Blackgrass"
value_observed = 0

[[record]]
compound = "CCCOc1c(C#N)cccc1Oc1ncc(Cl)cn1 [Compound 50]"
assayed_target = "blackgrass (Alopecurus myosuroides)"
observed_property = "Plant response rating, Blackgrass"
value_observed = 0

[[record]]
compound = "FCCCOc1c(I)cccc1Oc1ncc(Cl)cn1 [Compound 66]"
assayed_target = "blackgrass (Alopecurus myosuroides)"
observed_property = "Plant response rating, Blackgrass"
value_observed = 10

[[record]]
compound = "Cl/C=C/COc1c(Cl)cccc1Oc1ncc(Cl)cn1 [Compound 48]"
assayed_target = "blackgrass (Alopecurus myosuroides)"
observed_property = "Plant response rating, Blackgrass"
value_observed = 0


====

- Tested on: corn (Zea mays)
- TEST_DESCRIPTION: Test A postemergence, corn
- Format: in vivo
- CONDITION_SET: 31 g ai/ha, postemergence; 0 to 100 scale, 0 is no effect, 100 is complete control; approximately 10 days
OBSERVED_PROPERTY: Plant response rating, Corn

[[record]]
compound_smiles = "N#Cc1cccc(Oc2ncc(Cl)cn2)c1OCCCF"
observed_property = "Plant response rating, Corn"
value_observed = 10

[[record]]
compound_smiles = "FC(F)(F)CCCOc1c(I)cccc1Oc1ncc(Cl)cn1"
observed_property = "Plant response rating, Corn"
value_observed = 30

[[record]]
compound_smiles = "FC(F)(F)CCCOc1c(Oc2ncc(Cl)cn2)cccc1C(F)(F)F"
observed_property = "Plant response rating, Corn"
value_observed = 10

[[record]]
compound_smiles = "Cc1cccc(Oc2ncc(Cl)cn2)c1OCCCF"
observed_property = "Plant response rating, Corn"
value_observed = 0

[[record]]
compound_smiles = "FCCCOc1c(Cl)cccc1Oc1ncc(Cl)cn1"
observed_property = "Plant response rating, Corn"
value_observed = 0

[[record]]
compound_smiles = "N#Cc1cccc(Oc2ncc(F)cn2)c1OCCC(F)(F)F"
observed_property = "Plant response rating, Corn"
value_observed = 10

[[record]]
compound_smiles = "N#Cc1cccc(Oc2ncc(F)cn2)c1OC/C=C/C(F)(F)F"
observed_property = "Plant response rating, Corn"
value_observed = 20

[[record]]
compound_smiles = "Cc1cccc(Oc2ncc(Cl)cn2)c1OC/C=C/Cl"
observed_property = "Plant response rating, Corn"
value_observed = 0

[[record]]
compound_smiles = "O=C(CCC(F)(F)F)COc1c(Br)cccc1Oc1ncc(Cl)cn1"
observed_property = "Plant response rating, Corn"
value_observed = 10

[[record]]
compound_smiles = "N#Cc1cccc(Oc2ncc(Cl)cn2)c1OCC(=O)CCC(F)(F)F"
observed_property = "Plant response rating, Corn"
value_observed = 0


====

- Test system: blackgrass (Alopecurus myosuroides)
- TEST_DESCRIPTION: Test A postemergence, blackgrass
- Type: in vivo
- CONDITION_SET: 125 g ai/ha, postemergence; 0 to 100 scale, 0 is no effect, 100 is complete control; approximately 10 days
Recorded Plant response rating, Blackgrass values for a group of compounds are listed next.
OBSERVED_PROPERTY: Plant response rating, Blackgrass

[[record]]
compound = "N#CCCCOc1c(I)cccc1Oc1ncc(Cl)cn1 [Compound 67]"
value_observed = 30

[[record]]
compound = "N#Cc1cccc(Oc2ncc(F)cn2)c1OCCC(F)(F)F [Compound 40]"
value_observed = 30

[[record]]
compound = "C#Cc1cccc(Oc2ncc(Cl)cn2)c1OCCCF [Compound 71]"
value_observed = 0

[[record]]
compound = "Fc1cccc(Oc2ncc(Cl)cn2)c1OC/C=C/C(F)(F)F [Compound 25]"
value_observed = 20

[[record]]
compound = "N#Cc1cccc(Oc2ncc(F)cn2)c1OCCCF [Compound 30]"
value_observed = 0

[[record]]
compound = "FC(F)(F)/C=C/COc1c(I)cccc1Oc1ncc(Cl)cn1 [Compound 61]"
value_observed = 0

[[record]]
compound = "FC(F)(F)c1ccc(COc2c(Br)cccc2Oc2ncc(Cl)cn2)cc1 [Compound 19]"
value_observed = 0

[[record]]
compound = "FC(F)(F)C(F)(F)CCCOc1c(Br)cccc1Oc1ncc(Cl)cn1 [Compound 49]"
value_observed = 0

[[record]]
compound = "Fc1cccc(Oc2ncc(Cl)cn2)c1OCCCC(F)(F)F [Compound 27]"
value_observed = 30

[[record]]
compound = "CC(C)CCOc1c(Br)cccc1Oc1ncc(Cl)cn1 [Compound 12]"
value_observed = 20


====

- Tested on: kochia (Kochia scoparia)
- TEST_DESCRIPTION: Test A postemergence, kochia
- Format: in vivo
- CONDITION_SET: 31 g ai/ha, postemergence; 0 to 100 scale, 0 is no effect, 100 is complete control; approximately 10 days
OBSERVED_PROPERTY: Plant response rating, Kochia

[[record]]
compound_smiles = "FC(F)(F)CCCOc1c(Cl)cccc1Oc1ncc(Cl)cn1"
assayed_target = "kochia (Kochia scoparia)"
observed_property = "Plant response rating, Kochia"
value_observed = 50

[[record]]
compound_smiles = "FC(F)=C(F)CCOc1c(Br)cccc1Oc1ncc(Cl)cn1"
assayed_target = "kochia (Kochia scoparia)"
observed_property = "Plant response rating, Kochia"
value_observed = 20

[[record]]
compound_smiles = "FC(F)(F)/C=C/COc1c(Cl)cccc1Oc1ncc(Cl)cn1"
assayed_target = "kochia (Kochia scoparia)"
observed_property = "Plant response rating, Kochia"
value_observed = 50

[[record]]
compound_smiles = "CCCOc1c(C#N)cccc1Oc1ncc(Cl)cn1"
assayed_target = "kochia (Kochia scoparia)"
observed_property = "Plant response rating, Kochia"
value_observed = 20

[[record]]
compound_smiles = "N#CCCCOc1c(C#N)cccc1Oc1ncc(Cl)cn1"
assayed_target = "kochia (Kochia scoparia)"
observed_property = "Plant response rating, Kochia"
value_observed = 80

[[record]]
compound_smiles = "N#Cc1cccc(Oc2ncc(F)cn2)c1OCCCF"
assayed_target = "kochia (Kochia scoparia)"
observed_property = "Plant response rating, Kochia"
value_observed = 0

[[record]]
compound_smiles = "N#Cc1cccc(Oc2ncc(Cl)cn2)c1OCc1ccc(Cl)cn1"
assayed_target = "kochia (Kochia scoparia)"
observed_property = "Plant response rating, Kochia"
value_observed = 10

[[record]]
compound_smiles = "N#Cc1cccc(Oc2ncc(Cl)cn2)c1OCC(=O)CCC(F)(F)F"
assayed_target = "kochia (Kochia scoparia)"
observed_property = "Plant response rating, Kochia"
value_observed = 0

[[record]]
compound_smiles = "FCCCOc1c(I)cccc1Oc1ncc(Cl)cn1"
assayed_target = "kochia (Kochia scoparia)"
observed_property = "Plant response rating, Kochia"
value_observed = 90

[[record]]
compound_smiles = "N#Cc1cccc(Oc2ncc(Cl)cn2)c1OC/C=C/Cl"
assayed_target = "kochia (Kochia scoparia)"
observed_property = "Plant response rating, Kochia"
value_observed = 90

[[record]]
compound_smiles = "N#Cc1cccc(Oc2ncc(Cl)cn2)c1OCCCF"
assayed_target = "kochia (Kochia scoparia)"
observed_property = "Plant response rating, Kochia"
value_observed = 50

[[record]]
compound_smiles = "CCCCCOc1c(C#N)cccc1Oc1ncc(Cl)cn1"
assayed_target = "kochia (Kochia scoparia)"
observed_property = "Plant response rating, Kochia"
value_observed = 40

[[record]]
compound_smiles = "O=C(CCC(F)(F)F)COc1c(Br)cccc1Oc1ncc(Cl)cn1"
assayed_target = "kochia (Kochia scoparia)"
observed_property = "Plant response rating, Kochia"
value_observed = 0

[[record]]
compound_smiles = "FCCCOc1c(Cl)cccc1Oc1ncc(Cl)cn1"
assayed_target = "kochia (Kochia scoparia)"
observed_property = "Plant response rating, Kochia"
value_observed = 20

[[record]]
compound_smiles = "Cl/C=C/COc1c(Cl)cccc1Oc1ncc(Cl)cn1"
assayed_target = "kochia (Kochia scoparia)"
observed_property = "Plant response rating, Kochia"
value_observed = 60

[[record]]
compound_smiles = "FC(F)(F)CCCOc1c(Br)cccc1Oc1ncc(Cl)cn1"
assayed_target = "kochia (Kochia scoparia)"
observed_property = "Plant response rating, Kochia"
value_observed = 90

[[record]]
compound_smiles = "FC(F)(F)CCOc1c(Cl)cccc1Oc1ncc(Cl)cn1"
assayed_target = "kochia (Kochia scoparia)"
observed_property = "Plant response rating, Kochia"
value_observed = 30

[[record]]
compound_smiles = "FC(F)(F)CCCOc1c(I)cccc1Oc1ncc(Cl)cn1"
assayed_target = "kochia (Kochia scoparia)"
observed_property = "Plant response rating, Kochia"
value_observed = 90

[[record]]
compound_smiles = "N#Cc1cccc(Oc2ncc(F)cn2)c1OC/C=C/Cl"
assayed_target = "kochia (Kochia scoparia)"
observed_property = "Plant response rating, Kochia"
value_observed = 80

[[record]]
compound_smiles = "FC(F)(F)CCCCOc1c(Br)cccc1Oc1ncc(Cl)cn1"
assayed_target = "kochia (Kochia scoparia)"
observed_property = "Plant response rating, Kochia"
value_observed = 50

[[record]]
compound_smiles = "Cc1cccc(Oc2ncc(Cl)cn2)c1OCCC(F)(F)F"
assayed_target = "kochia (Kochia scoparia)"
observed_property = "Plant response rating, Kochia"
value_observed = 10

[[record]]
compound_smiles = "N#Cc1cccc(Oc2ncc(Cl)cn2)c1OCCCCC(F)(F)F"
assayed_target = "kochia (Kochia scoparia)"
observed_property = "Plant response rating, Kochia"
value_observed = 100

[[record]]
compound_smiles = "N#Cc1cccc(Oc2ncc(F)cn2)c1OCCC(F)(F)F"
assayed_target = "kochia (Kochia scoparia)"
observed_property = "Plant response rating, Kochia"
value_observed = 50

[[record]]
compound_smiles = "FC(F)(F)CCCOc1c(Oc2ncc(Cl)cn2)cccc1C(F)(F)F"
assayed_target = "kochia (Kochia scoparia)"
observed_property = "Plant response rating, Kochia"
value_observed = 10

[[record]]
compound_smiles = "Cc1cccc(Oc2ncc(Cl)cn2)c1OCCCC(F)(F)F"
assayed_target = "kochia (Kochia scoparia)"
observed_property = "Plant response rating, Kochia"
value_observed = 10

[[record]]
compound_smiles = "Cc1cccc(Oc2ncc(Cl)cn2)c1OCCCF"
assayed_target = "kochia (Kochia scoparia)"
observed_property = "Plant response rating, Kochia"
value_observed = 0

[[record]]
compound_smiles = "FC(F)(F)/C=C/COc1c(I)cccc1Oc1ncc(Cl)cn1"
assayed_target = "kochia (Kochia scoparia)"
observed_property = "Plant response rating, Kochia"
value_observed = 40

[[record]]
compound_smiles = "N#Cc1cccc(Oc2ncc(F)cn2)c1OC/C=C/C(F)(F)F"
assayed_target = "kochia (Kochia scoparia)"
observed_property = "Plant response rating, Kochia"
value_observed = 90

[[record]]
compound_smiles = "N#CCCCOc1c(C#N)cccc1Oc1ncc(F)cn1"
assayed_target = "kochia (Kochia scoparia)"
observed_property = "Plant response rating, Kochia"
value_observed = 50

[[record]]
compound_smiles = "N#CCCCOc1c(Cl)cccc1Oc1ncc(Cl)cn1"
assayed_target = "kochia (Kochia scoparia)"
observed_property = "Plant response rating, Kochia"
value_observed = 20

[[record]]
compound_smiles = "FC(F)(F)C(F)(F)CCCOc1c(Br)cccc1Oc1ncc(Cl)cn1"
assayed_target = "kochia (Kochia scoparia)"
observed_property = "Plant response rating, Kochia"
value_observed = 0


Where do the numbers come from? From patent US10485235B2.
